Reference source: paper PMC9482650

Target: T1, PARD3B_1, Q8TEW8
T1 sequence (Q8TEW8 196-299, limits assumed, looked up): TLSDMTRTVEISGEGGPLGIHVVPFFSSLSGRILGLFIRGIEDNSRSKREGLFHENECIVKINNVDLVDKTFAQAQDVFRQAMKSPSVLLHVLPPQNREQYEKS
Assay: holdup assay
Design: key: below the threshold = too weak to quantify, mostly under pKd 3.1 to 4
Conditions: plain residues with an end cap or a label only (N-terminal biotin on a linker: ado-ado)

binder: AHGSTRDQSI [KCNB1, Q14721]
pKd: below the threshold

binder: QRYPGNQTTC [CCL24, O00175]
pKd: below the threshold

binder: RDYTQSSSSL [GRM5, P41594]
pKd: 3.82

binder: AKADAQESRL [PLCB2, Q00722]
pKd: 4.47
